test: In vitro dissociation in blood plasma of rat
Format: in vitro ADME, SD rats
setup conditions: fresh SD rat plasma, 37° C., 5 min incubation
Counter-ions that a name gives are not always drawn.
For each entry below, report its Sampling time/Dissociation percent (%) 5 min value.
Use % as the unit, but write only the number.

Prompt: Tell me the measured Sampling time/Dissociation percent (%) 5 min of CCN(C)C(C)C[C@H](CC(F)F)C(=O)O[C@@H](C(=O)O[C@H]1C[C@@]2(O)[C@@H](OC(=O)c3ccccc3)[C@@H]3[C@]4(OC(C)=O)CO[C@@H]4C[C@H](O)[C@@]3(C)C(=O)[C@H](O)C(=C1C)C2(C)C)[C@@H](NC(=O)OC(C)(C)C)c1ccccc1.Cl (stereo partly shown) , please.
Response: 75.6

Prompt: Tell me the measured Sampling time/Dissociation percent (%) 5 min of "CC(=O)O[C@@]12CO[C@@H]1C[C@H](O)[C@@]1(C)C(=O)[C@H](O)C3=C(C)[C@@H](OC(=O)[C@H](OC(=O)[C@@H](F)CCN(C)C)[C@@H](NC(=O)OC(C)(C)C)c4ccccc4)C[C@@](O)([C@@H](OC(=O)c4ccccc4)[C@H]21)C3(C)C.Cl" , please.
Response: 91.1

Prompt: Tell me the measured Sampling time/Dissociation percent (%) 5 min of CO[C@H]1C(=O)[C@]2(C)[C@@H](OC)C[C@H]3OC[C@@]3(OC(C)=O)[C@H]2[C@H](OC(=O)c2ccccc2)[C@]2(O)C[C@H](OC(=O)[C@H](OC(=O)[C@H](F)CCN(C)C)[C@@H](NC(=O)OC(C)(C)C)c3ccccc3)C(C)=C1C2(C)C [Compound 07, hydrochloride] , please.
Response: 89.6

Prompt: Tell me the measured Sampling time/Dissociation percent (%) 5 min of CC(=O)O[C@@]12CO[C@@H]1C[C@H](O)[C@@]1(C)C(=O)[C@H](O)C3=C(C)[C@@H](OC(=O)[C@H](OC(=O)C(F)CCN(C)C)[C@@H](NC(=O)OC(C)(C)C)c4ccccc4)C[C@@](O)([C@@H](OC(=O)c4ccccc4)[C@H]21)C3(C)C.Cl (stereo partly shown) , please.
Response: 91.1

====

test: In vitro dissociation in blood plasma of rabbit
Assay type: in vitro ADME, New Zealand white rabbits
setup conditions: fresh New Zealand white rabbit plasma, 37° C., 10 min
For each entry below, report its Sampling time/Dissociation percent (%) 10 min value.
Answer format reminder: number followed by unit.

Prompt: Tell me the measured Sampling time/Dissociation percent (%) 10 min of CC(=O)O[C@@]12CO[C@@H]1C[C@H](O)[C@@]1(C)C(=O)[C@H](O)C3=C(C)[C@@H](OC(=O)[C@H](OC(=O)[C@H](F)CC(C)N(C)C)[C@@H](NC(=O)OC(C)(C)C)c4ccccc4)C[C@@](O)([C@@H](OC(=O)c4ccccc4)[C@H]21)C3(C)C.Cl (some centres unmarked) , please.
Response: 93.4%

Prompt: Tell me the measured Sampling time/Dissociation percent (%) 10 min of "CC(=O)O[C@H]1C(=O)[C@@]2(C)[C@H]([C@H](OC(=O)c3ccccc3)[C@]3(O)C[C@H](OC(=O)[C@H](OC(=O)[C@H](F)CCN(C)C)[C@@H](NC(=O)c4ccccc4)c4ccccc4)C(C)=C1C3(C)C)[C@]1(OC(C)=O)CO[C@@H]1C[C@@H]2O.Cl" , please.
Response: 100%

====

test: In vitro dissociation in blood plasma of rabbit
Format: in vitro ADME, New Zealand white rabbits
setup conditions: fresh New Zealand white rabbit plasma, 37° C., 10 min
For each entry below, report its Sampling time/Dissociation percent (%) 10 min value.
Answer format reminder: number followed by unit.

Prompt: Tell me the measured Sampling time/Dissociation percent (%) 10 min of "CC(=O)O[C@H]1C(=O)[C@@]2(C)[C@H]([C@H](OC(=O)c3ccccc3)[C@]3(O)C[C@H](OC(=O)[C@H](OC(=O)[C@H](F)CCN(C)C)[C@@H](NC(=O)c4ccccc4)c4ccccc4)C(C)=C1C3(C)C)[C@]1(OC(C)=O)CO[C@@H]1C[C@@H]2O.CS(=O)(=O)O" , please.
Response: 100%

Prompt: Tell me the measured Sampling time/Dissociation percent (%) 10 min of CC(=O)O[C@@]12CO[C@@H]1C[C@H](O)[C@@]1(C)C(=O)[C@H](O)C3=C(C)[C@@H](OC(=O)[C@H](OC(=O)C(F)CCN(C)C)[C@@H](NC(=O)OC(C)(C)C)c4ccccc4)C[C@@](O)([C@@H](OC(=O)c4ccccc4)[C@H]21)C3(C)C.CS(=O)(=O)O (stereo partly shown) , please.
Response: 100%

Prompt: Tell me the measured Sampling time/Dissociation percent (%) 10 min of COC1C(=O)C2(C)C(OC)CC3OCC3(OC(C)=O)C2C(OC(=O)c2ccccc2)C2(O)CC(OC(=O)C(OC(=O)C(CCN)C(F)F)C(NC(=O)OC(C)(C)C)c3ccccc3)C(C)=C1C2(C)C.O=S(=O)([O-])O.[Na+] (stereo not shown) , please.
Response: 80.3%

Prompt: Tell me the measured Sampling time/Dissociation percent (%) 10 min of CC(=O)OC12COC1CCC1(C)C3OC(CN(C)C)OC3C3=C(C)C(OC(=O)C(OC(=O)C(F)CC(C)N(C)C)C(NC(=O)OC(C)(C)C)c4ncccc4F)CC(O)(C(OC(=O)c4ccccc4)C12)C3(C)C.CS(=O)(=O)O (stereo not shown) , please.
Response: 100%

====

test: In vitro dissociation in blood plasma of rat
Type: in vitro ADME, SD rats
setup conditions: fresh SD rat plasma, 37° C., 2 min incubation
For each entry below, report its Sampling time/Dissociation percent (%) 2 min value.

Prompt: Tell me the measured Sampling time/Dissociation percent (%) 2 min of CC(=O)O[C@H]1C(=O)[C@@]2(C)[C@H]([C@H](OC(=O)c3ccccc3)[C@]3(O)C[C@H](OC(=O)[C@H](OC(=O)[C@H](F)CCN(C)C)[C@@H](NC(=O)c4ccccc4)c4ccccc4)C(C)=C1C3(C)C)[C@]1(OC(C)=O)CO[C@@H]1C[C@@H]2O.CS(=O)(=O)O [Compound C1] , please.
Response: 64.3%

Prompt: Tell me the measured Sampling time/Dissociation percent (%) 2 min of CCN(C)C(C)C[C@H](C(=O)O[C@@H](C(=O)O[C@H]1C[C@@]2(O)[C@@H](OC(=O)c3ccccc3)[C@@H]3[C@]4(OC(C)=O)CO[C@@H]4C[C@H](O)[C@@]3(C)C(=O)[C@H](O)C(=C1C)C2(C)C)[C@@H](NC(=O)OC(C)(C)C)c1ccccc1)C(C)(F)F.CS(=O)(=O)O (stereo partly shown) [Compound C12] , please.
Response: 42.8%

Prompt: Tell me the measured Sampling time/Dissociation percent (%) 2 min of CC(=O)OC12COC1CC(O)C1(C)C(=O)C(O)C3=C(C)C(OC(=O)C(OC(=O)C(F)CCN(C)C)C(NC(=O)OC(C)(C)C)c4ccccc4)CC(O)(C(OC(=O)c4ccccc4)C21)C3(C)C.Cl (stereo not shown) [Compound 04] , please.
Response: 58.6%

Prompt: Tell me the measured Sampling time/Dissociation percent (%) 2 min of CCCCC(CC(F)(C(=O)OC(C(=O)OC1CC2(O)C(OC(=O)c3ccccc3)C3C4(OC(C)=O)COC4CC(O)C3(C)C(=O)C(OC(C)=O)C(=C1C)C2(C)C)C(NC(=O)c1ccccc1)c1ccccc1)C(F)(F)F)N(C)C1CCCC1.Cl (mixture of isomers) [Compound C15] , please.
Response: 34.2%

====

System: human prostate cancer PC-3
test: Inhibitory activity of docetaxel derivatives on subcutaneously xenografted tumor PC-3 in nude mice
Format: in vivo
setup conditions: D6; 33.6 mg/kg, D0 IV; nude mice
reported property: Weight change (%) D6
Use % as the unit, but write only the number.

Prompt: Tell me the measured Weight change (%) D6 of CCN(C)CCC(F)C(=O)OC(C(=O)OC1CC2(O)C(OC(=O)c3ccccc3)C3C4(OC(C)=O)COC4CC(O)C3(C)C(=O)C(O)C(=C1C)C2(C)C)C(NC(=O)OC(C)(C)C)c1ccccc1.CS(=O)(=O)O (stereo not drawn) , please.
Response: −13.6

Prompt: Tell me the measured Weight change (%) D6 of CC(=O)O[C@@]12CO[C@@H]1C[C@H](O)[C@@]1(C)C(=O)[C@H](O)C3=C(C)[C@@H](OC(=O)[C@H](OC(=O)C(CCN(C)C)C(F)F)[C@@H](NC(=O)OC(C)(C)C)c4ccccc4)C[C@@](O)([C@@H](OC(=O)c4ccccc4)[C@H]21)C3(C)C.Cl (stereo partly drawn) , please.
Response: −15.1

Prompt: Tell me the measured Weight change (%) D6 of "CC(=O)O[C@@]12CO[C@@H]1C[C@H](O)[C@@]1(C)C(=O)[C@H](O)C3=C(C)[C@@H](OC(=O)[C@H](OC(=O)[C@H](F)CCN(C)C(C)C)[C@@H](NC(=O)OC(C)(C)C)c4ccccc4)C[C@@](O)([C@@H](OC(=O)c4ccccc4)[C@H]21)C3(C)C.Cl" , please.
Response: −14.4

Prompt: Tell me the measured Weight change (%) D6 of "CC(=O)O[C@@]12CO[C@@H]1C[C@H](O)[C@@]1(C)C(=O)[C@H](O)C3=C(C)[C@@H](OC(=O)[C@H](OC(=O)[C@@H](CCN(C)C)C(F)(F)F)[C@@H](NC(=O)OC(C)(C)C)c4ccccc4)C[C@@](O)([C@@H](OC(=O)c4ccccc4)[C@H]21)C3(C)C.CS(=O)(=O)O" , please.
Response: −13.9

Prompt: Tell me the measured Weight change (%) D6 of CCN(CC)CCC(F)C(=O)OC(C(=O)OC1CC2(O)C(OC(=O)c3ccccc3)C3C4(OC(C)=O)COC4CC(O)C3(C)C(=O)C(O)C(=C1C)C2(C)C)C(NC(=O)OC(C)(C)C)c1ccccc1.O=C(O)C=CC(=O)O (stereo not drawn) , please.
Response: −14.1

Prompt: Tell me the measured Weight change (%) D6 of CC(=O)O[C@@]12CO[C@@H]1C[C@H](O)[C@@]1(C)C(=O)[C@H](O)C3=C(C)[C@@H](OC(=O)[C@H](OC(=O)C(F)CCN(C)C)[C@@H](NC(=O)OC(C)(C)C)c4ccccc4)C[C@@](O)([C@@H](OC(=O)c4ccccc4)[C@H]21)C3(C)C.CS(=O)(=O)O (stereo partly drawn) , please.
Response: −12.6
